# tested.on: T1, human VEGF (hVEGF) (human, UniProt P15692 181-395)
# T1 construct: also called VEGF-A
# T1 sequence: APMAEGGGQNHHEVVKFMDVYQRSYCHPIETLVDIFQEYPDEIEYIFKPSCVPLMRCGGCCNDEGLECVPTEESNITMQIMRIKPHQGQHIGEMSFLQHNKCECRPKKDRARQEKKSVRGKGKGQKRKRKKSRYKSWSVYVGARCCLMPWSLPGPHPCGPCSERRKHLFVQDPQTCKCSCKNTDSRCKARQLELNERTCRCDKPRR
# assay: SPR single-cycle;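 note: fab variants injected over hVEGF immobilized on a CM5 chip (Biacore T200), threefold dilution series from 0.02 to 50 nM, kinetics fitted with a 1:1 Langmuir model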
readout.type: Fold change (relative to G6.31) (fold)
# unit: fold | format: bare number

Some solved cases for reference:
binder	readout.type	unit.info	assay.result
G6.31 LC-S50R (Fab, V domains shown, Fab) VH: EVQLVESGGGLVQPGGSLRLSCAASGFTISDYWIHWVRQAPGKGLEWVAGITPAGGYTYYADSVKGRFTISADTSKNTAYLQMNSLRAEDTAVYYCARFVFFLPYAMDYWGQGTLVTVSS VL: DIQMTQSPSSLSASVGDRVTITCRASQDVSTAVAWYQQKPGKAPKLLIYRASFLYSGVPSRFSGSGSGTDFTLTISSLQPEDFATYYCQQGYGNPFTFGQGTKVEIK	Fold change (relative to G6.31)	fold	0.9
G6.31 LC-P40E (Fab, V domains shown, Fab) VH: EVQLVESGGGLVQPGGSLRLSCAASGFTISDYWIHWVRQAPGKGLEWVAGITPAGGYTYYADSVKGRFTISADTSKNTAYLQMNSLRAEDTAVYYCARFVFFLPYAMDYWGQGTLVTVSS VL: DIQMTQSPSSLSASVGDRVTITCRASQDVSTAVAWYQQKEGKAPKLLIYSASFLYSGVPSRFSGSGSGTDFTLTISSLQPEDFATYYCQQGYGNPFTFGQGTKVEIK	Fold change (relative to G6.31)	fold	0.1
G6.31 HC-P41R (Fab, name in Kabat numbering, V domains shown, Fab) VH: EVQLVESGGGLVQPGGSLRLSCAASGFTISDYWIHWVRQARGKGLEWVAGITPAGGYTYYADSVKGRFTISADTSKNTAYLQMNSLRAEDTAVYYCARFVFFLPYAMDYWGQGTLVTVSS VL: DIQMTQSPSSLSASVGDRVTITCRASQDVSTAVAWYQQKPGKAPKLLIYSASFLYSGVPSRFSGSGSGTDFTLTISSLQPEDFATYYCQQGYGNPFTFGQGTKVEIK	Fold change (relative to G6.31)	fold	1.8
G6.31 HC-T73E (Fab, name in Kabat numbering, V domains shown, Fab) VH: EVQLVESGGGLVQPGGSLRLSCAASGFTISDYWIHWVRQAPGKGLEWVAGITPAGGYTYYADSVKGRFTISADESKNTAYLQMNSLRAEDTAVYYCARFVFFLPYAMDYWGQGTLVTVSS VL: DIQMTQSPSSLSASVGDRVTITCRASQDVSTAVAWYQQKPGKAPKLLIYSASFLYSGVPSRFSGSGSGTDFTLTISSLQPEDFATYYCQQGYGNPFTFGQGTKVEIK	Fold change (relative to G6.31)	fold	2.2

Quick check: Fold change (relative to G6.31) of G6.31 HC-S82bE (Fab, name in Kabat numbering, V domains shown, Fab) VH: EVQLVESGGGLVQPGGSLRLSCAASGFTISDYWIHWVRQAPGKGLEWVAGITPAGGYTYYADSVKGRFTISADTSKNTAYLQMNELRAEDTAVYYCARFVFFLPYAMDYWGQGTLVTVSS VL: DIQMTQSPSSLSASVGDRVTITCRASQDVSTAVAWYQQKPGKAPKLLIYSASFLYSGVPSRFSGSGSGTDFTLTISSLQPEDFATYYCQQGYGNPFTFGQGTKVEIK ?
1.7
